Measured pEC50 by item
- Target system: UniProt Q9Y2T5
- Sequence (Q9Y2T5 whole entry): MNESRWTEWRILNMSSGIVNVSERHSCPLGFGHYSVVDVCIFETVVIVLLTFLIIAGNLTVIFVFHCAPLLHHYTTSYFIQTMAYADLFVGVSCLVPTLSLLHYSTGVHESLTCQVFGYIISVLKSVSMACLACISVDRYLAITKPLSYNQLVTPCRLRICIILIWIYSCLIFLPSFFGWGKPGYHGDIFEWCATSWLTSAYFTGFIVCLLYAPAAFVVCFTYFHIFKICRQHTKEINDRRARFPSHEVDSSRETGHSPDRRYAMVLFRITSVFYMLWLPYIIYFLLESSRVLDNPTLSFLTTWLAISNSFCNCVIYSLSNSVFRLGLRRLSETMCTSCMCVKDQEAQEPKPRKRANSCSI
- Test summary: GPR52 Agonist Functional cAMP Assay;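 also: HEKf cells transduced with GPR52 BacMam for 24 h, 2000 per well, exposed to compounds 30 min at 37° C with 0.5 mM IBMX, cAMP read by HTRF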
- Recorded conditions: pEC50 average, HEKf cells infected with human GPR52 BacMam virus; cAMP HTRF; 30 min at 37° C.
FYI, pEC50 means -log10 of a concentration in mol per litre.

Any idea what pEC50 came out for O=C1NCCc2c1cnn2-c1cnnc(Cc2cc(F)cc(C(F)(F)F)c2)c1 [Example 17] on UniProt Q9Y2T5?
5.90

More entries:
Any idea what pEC50 came out for Cc1nn(-c2cc(C(O)c3cc(F)cc(C(F)(F)F)c3)ccn2)c2c1C(=O)NCC2 (single isomer, unassigned) [118 Isomer 2] on UniProt Q9Y2T5?
8.10

Any idea what pEC50 came out for O=C1NCCc2nn(-c3cc(Cc4cccc(C(F)(F)F)c4)ccn3)cc21 [Example 8] on UniProt Q9Y2T5?
6.50

Any idea what pEC50 came out for O=C1NCCc2c1cnn2-c1ccnc(Cc2ccc(F)c(C(F)(F)F)c2)c1 [Example 23] on UniProt Q9Y2T5?
6.80

Any idea what pEC50 came out for O=C1NCCc2c1cnn2-c1ccnc(Cc2cc(F)cc(Cl)c2)c1 [Example 20] on UniProt Q9Y2T5?
6.80

Any idea what pEC50 came out for O=C1NCCc2c1cnn2-c1ccnc(Cc2cc(F)cc(C3CC3)c2)c1 [Example 53] on UniProt Q9Y2T5?
8.20

Any idea what pEC50 came out for O=C1NCCc2c1cnn2-c1ccnc(Cc2cnc3ccccc3c2)c1 [Example 67] on UniProt Q9Y2T5?
5.80

Any idea what pEC50 came out for O=C1NCCc2c1cnn2-c1ccnc(Cc2cnc(OC(F)F)c(F)c2)c1 [Example 110] on UniProt Q9Y2T5?
6.30
